tested on: S. aureus; experiment: Minimum inhibitory concentrations (MICs) for S. aureus of exemplary compounds (Table 2); assay type: cell-based; conditions: Staphylococcus aureus, minimum inhibitory concentrations for S. aureus; read-out: MICs
I'd appreciate it if you could supply MIC values for the items below.
Numbers only, in µg/mL.

CC(=O)NC[C@H]1CN(c2ccc(-c3ccc(CNCc4cnccc4N)cc3)c(F)c2)C(=O)O1 [Compound 4135]
4
CC(=O)NC[C@H]1CN(c2ccc(-c3ccc(CNCC4CCCN4)cc3)c(F)c2)C(=O)O1 (mixture of isomers) [Compound 4279]
4

Dear reader, for each entry below, please note its MIC.
1. CC(=O)NC[C@H]1CN(c2ccc(-c3ccc(Cn4ccnc4)c(F)c3)c(F)c2)C(=O)O1 [Compound 1010]
2. CC(=O)NC[C@H]1CN(c2ccc(-c3ccc(CNCc4csc(-c5ccccc5)n4)cc3)c(F)c2)C(=O)O1 [Compound 4122]
3. CC(=O)NC[C@H]1CN(c2ccc(-c3ccc(CNC(=O)[C@H](N)c4ccc(F)cc4)cc3)c(F)c2)C(=O)O1 [Compound 4297]
4. CC(=O)NC[C@H]1CN(c2ccc(-c3ccc(CNCc4cc(C)oc4C)cc3)c(F)c2)C(=O)O1 [Compound 4103]
5. CC(=O)NC[C@H]1CN(c2ccc(-c3ccc(CNCc4cncc5ccccc45)cc3)c(F)c2)C(=O)O1 [Compound 4060]

1
1
2
8
2

====

assay: Approximate solubility in solvents by aliquot addition; format: physicochemical; settings: propionitrile, organic solvent or mixture, thermodynamic from solid, Table 11: Propionitrile; material never went into solution
Counter-ions that a name gives are not always drawn.
MEASURE NAME: solubility

// lookup solubility for CC(=O)NC[C@H]1CN(c2ccc(-c3ccc(CNCc4cnn[nH]4)cc3)c(F)c2)C(=O)O1 [Hydrochloride] < 2000 µg/mL

====

tested on: S. aureus; test: Minimum inhibitory concentrations (MICs) for S. aureus of exemplary compounds (Table 2); type: cell-based; conditions: Staphylococcus aureus, minimum inhibitory concentrations for S. aureus; read-out: MICs
MEASURE NAME: MIC (µg/mL)
Give bare numbers, in µg/mL.

The following molecules have reported results that may help.
CC(=O)NC[C@H]1CN(c2ccc(-c3ccc(/C=N/Nc4nccc(C(F)(F)F)n4)cc3)c(F)c2)C(=O)O1 [Compound 2042]
128
CC(=O)NC[C@H]1CN(c2ccc(-c3ccc(CSc4ncnn4C)cc3)c(F)c2)C(=O)O1 [Compound 2033]
1
CC(=O)NC[C@H]1CN(c2ccc(-c3ccc(CNCc4ccc(-c5ccccn5)cc4)cc3)c(F)c2)C(=O)O1 [Compound 4017]
2

Now let's try a different one.
GET /values?readout=MIC&item= CC(=O)NC[C@H]1CN(c2ccc(-c3ccc(CNCc4cnnn4C)cc3)c(F)c2)C(=O)O1 [Compound 4272] 0.25

====

test: Approximate solubility in solvents by aliquot addition; type: physicochemical; conditions: 2-butanone, organic solvent or mixture, thermodynamic from solid, Table 11: 2-Butanone; material never went into solution
Structures can show the parent of a compound that is named as a salt.
MEASURE NAME: solubility

Consider the compound shown here: CC(=O)NC[C@H]1CN(c2ccc(-c3ccc(CNCc4cnn[nH]4)cc3)c(F)c2)C(=O)O1 [Hydrochloride] What is its recorded solubility? < 2000 µg/mL

====

Experiment: Approximate solubility in solvents by aliquot addition
Assay type: physicochemical
Settings: 1-butanol, organic solvent or mixture, thermodynamic from solid, Table 11: 1-Butanol; material never went into solution
Description: Solubilities of the radezolid free base and radezolid HCl salt in various solvents were estimated and are shown in Tables 10 and 11, respectively, below. A weighed sample was treated with aliquots of test solvent at ambient temperature. Complete dissolution of the test material was determined by visual inspection. […] The actual solubility may be greater than the approximate solubility calculated because of the use of solvent aliquots that were too large or due to a slow rate of dissolution. […]
Structures can show the parent of a compound that is named as a salt.
MEASURE NAME: solubility

Which solubility is listed for CC(=O)NC[C@H]1CN(c2ccc(-c3ccc(CNCc4cnn[nH]4)cc3)c(F)c2)C(=O)O1 [Hydrochloride] ? < 2000 µg/mL

====

tested on: S. aureus; test: Minimum inhibitory concentrations (MICs) for S. aureus of exemplary compounds (Table 2); type: cell-based; conditions: Staphylococcus aureus, minimum inhibitory concentrations for S. aureus; read-out: MICs
MEASURE NAME: MIC (µg/mL)
Numbers only, in µg/mL.

CC(=O)NC[C@H]1CN(c2ccc(-c3ccc(C(C)NCc4ccoc4)cc3)c(F)c2)C(=O)O1 (mixture of isomers)
4

For each of the compounds below, note its MIC.
1. CC(=O)NC[C@H]1CN(c2ccc(-c3ccc(C(=O)NCCc4ccccn4)cc3)c(F)c2)C(=O)O1
2. CC(=O)NC[C@H]1CN(c2ccc(-c3ccc(COCc4ccccn4)nc3)c(F)c2)C(=O)O1
3. CSc1nnnn1Cc1ccc(-c2ccc(N3C[C@H](CNC(C)=O)OC3=O)cc2F)cc1
4. COc1cc(CN(C)Cc2ccoc2)ccc1-c1ccc(N2C[C@H](CNC(C)=O)OC2=O)cc1F

0.5
1
2
32

Need MIC for each of these compounds.
1. CC(=O)NC[C@H]1CN(c2ccc(-c3ccc(CNCCCc4cn[nH]c4C)cc3)c(F)c2)C(=O)O1
2. CNCc1cn(Cc2ccc(-c3ccc(N4C[C@H](CNC(C)=O)OC4=O)cc3F)cc2)nn1
3. CC(=O)NC[C@H]1CN(c2ccc(-c3ccc(CN4CC[C@H](N)C4)cc3)c(F)c2)C(=O)O1
4. CC(=O)NC[C@H]1CN(c2ccc(-c3ccc(CNCc4ccc5cccnc5c4)cc3)c(F)c2)C(=O)O1
5. CC(=O)NC[C@H]1CN(c2ccc(-c3ccc(C[S+]([O-])Cc4ccncc4)cc3)c(F)c2)C(=O)O1 (some centres unmarked)

1: 2; 2: 2; 3: 4; 4: 1; 5: 0.25

// each compound listed below needs its MIC
1. CC(=O)NC[C@H]1CN(c2ccc(-c3ccc(CNCc4c[nH]c(=O)[nH]c4=O)cc3)c(F)c2)C(=O)O1
2. CC(=O)NC[C@H]1CN(c2ccc(-c3ccc(CNCc4cc(C)oc4C(F)(F)F)cc3)c(F)c2)C(=O)O1
3. CC(=O)NC[C@H]1CN(c2ccc(-c3ccc(C(C)NCc4nccs4)cc3)c(F)c2)C(=O)O1 (mixture of isomers)

1
0.5
2

Form: Entry = CC(=O)NC[C@H]1CN(c2ccc(-c3ccc(C(=O)NCc4ccccn4)cc3)c(F)c2)C(=O)O1 | System = S. aureus | MIC = ____ 0.25

====

test system: S. aureus; assay: Minimum inhibitory concentrations (MICs) for S. aureus of exemplary compounds (Table 2); format: cell-based; settings: Staphylococcus aureus, minimum inhibitory concentrations for S. aureus; read-out: MICs
MEASURE NAME: MIC (mg/L)
Answers are plain numbers, in mg/L.

CC(=O)NC[C@H]1CN(c2ccc(-c3ccc(CNC(=O)C4CCN4)cc3)c(F)c2)C(=O)O1 (stereo partly drawn)
2
CC(=O)NC[C@H]1CN(c2ccc(-c3ccc(CN4CC[C@@H](O)C4)cc3)c(F)c2)C(=O)O1
4
CC(=O)NC[C@H]1CN(c2ccc(-c3ccc(CNc4ccon4)cc3)c(F)c2)C(=O)O1
0.25
CC(=O)NC[C@H]1CN(c2ccc(-c3ccc(Cn4ccnc4C)cc3)c(F)c2)C(=O)O1
1
CC(=O)NC[C@H]1CN(c2ccc(-c3ccc(CNCc4ccc5ccccc5n4)cc3)c(F)c2)C(=O)O1
0.5
CC(=O)NC[C@H]1CN(c2ccc(-c3ccc(CNC(=O)[C@@H]4C=CCN4)cc3)c(F)c2)C(=O)O1
2

Could you report MIC for every entry in the following list?
1. CC(=O)NC[C@H]1CN(c2ccc(-c3ccc(CSc4cnn[nH]4)cc3)c(F)c2)C(=O)O1
2. CC(=O)NC[C@H]1CN(c2ccc(-c3ccc(CNCc4cccc5cnccc45)cc3)c(F)c2)C(=O)O1
3. CC(=O)NC[C@H]1CN(c2ccc(-c3ccc(C(=O)NCc4cocn4)cc3)c(F)c2)C(=O)O1

1. 0.25
2. 2
3. 1

====

system: S. aureus; experiment: Minimum inhibitory concentrations (MICs) for S. aureus of exemplary compounds (Table 2); type: cell-based; conditions: Staphylococcus aureus, minimum inhibitory concentrations for S. aureus; read-out: MICs
I'd be grateful if you could share measured MIC for these entries.
Give bare numbers, in µg/mL.

Examples with answers:
CO/N=C(\CNCc1cnoc1)c1ccc(-c2ccc(N3C[C@H](CNC(C)=O)OC3=O)cc2F)cc1
2
CSc1ccc(CNCc2ccc(-c3ccc(N4C[C@H](CNC(C)=O)OC4=O)cc3F)cc2)s1
2

Batch request: MIC for each of the following compounds.
1. CCOC(=O)c1cnn(Cc2ccc(-c3ccc(N4C[C@H](CNC(C)=O)OC4=O)cc3F)cc2)c1
2. COc1nc(C)c(/C=C/C(=O)NCc2ccc(-c3ccc(N4C[C@H](CNC(C)=O)OC4=O)cc3F)cc2)c(O)n1
3. CC(=O)NC[C@H]1CN(c2ccc(-c3ccc(CSc4ccccn4)cc3)c(F)c2)C(=O)O1
4. CC(=O)NC[C@H]1CN(c2ccc(-c3ccc(S(=O)(=O)NCc4ccccn4)cc3)c(F)c2)C(=O)O1
5. CC(=O)NC[C@H]1CN(c2ccc(-c3ccc([C@H](O)CN(Cc4ccccc4)C(C)=O)cc3)c(F)c2)C(=O)O1
6. CC(=O)NC[C@H]1CN(c2ccc(-c3ccc(Cn4cccn4)cc3)c(F)c2)C(=O)O1

1. 0.5
2. 2
3. 0.25
4. 16
5. 2
6. 0.25
